Molecular target: Potassium-transporting ATPase (Homo sapiens)
Experiment: Antisecretory activity evaluated by the inhibition of 14C -AP uptake in isolated rabbit parietal cells stimulated by dibutyryl cyclic adenosine 3', 5' -monophosphate (dcAMP)
Type: functional, Oryctolagus cuniculus
Settings: target entry is the homologue from another species
pIC50: −log10 of the molar value.
MEASURED METRIC: pIC50

Illustrative cases are given below, each with its answer.
CCCCN(CCCC)CCOc1ccc(/C=C/c2nc3ccccc3s2)cc1 : 6.22
CCCN(CCC)CCCOc1ccc(-c2csc(-c3ccccc3)n2)cc1 : 6.74
CCCCN(CCCC)CCCOc1ccc(-c2csc(-c3ccc(OC)cc3)n2)cc1 : 6.64

(I) CCCCN(CCCC)CCOc1ccc(-c2csc(-c3ccccc3)n2)cc1
(II) CCCN(CCC)CCCCOc1ccc(/C=C/c2nc3ccccc3o2)cc1.Cl
(III) CCN(CC)CCCOc1ccc(/C=C/c2nc3ccccc3o2)cc1
(IV) Cl.O.c1ccc(-c2nc(-c3ccc(OCCCn4ccnc4)cc3)cs2)cc1
(V) CCCCN(CCCC)CCCOc1ccc(/C=C/c2nc3ccccc3n2C)cc1
rank_up(items): orders items by reported pIC50 in ascending numerical order. // respond by listing labels in the order requested
V, III, I, II, IV
(V: 5.59, III: 6.01, I: 6.46, II: 6.96, IV: 7.70)
